- Target Desc: Sko1 (UniProt Q02100)
- Sequence: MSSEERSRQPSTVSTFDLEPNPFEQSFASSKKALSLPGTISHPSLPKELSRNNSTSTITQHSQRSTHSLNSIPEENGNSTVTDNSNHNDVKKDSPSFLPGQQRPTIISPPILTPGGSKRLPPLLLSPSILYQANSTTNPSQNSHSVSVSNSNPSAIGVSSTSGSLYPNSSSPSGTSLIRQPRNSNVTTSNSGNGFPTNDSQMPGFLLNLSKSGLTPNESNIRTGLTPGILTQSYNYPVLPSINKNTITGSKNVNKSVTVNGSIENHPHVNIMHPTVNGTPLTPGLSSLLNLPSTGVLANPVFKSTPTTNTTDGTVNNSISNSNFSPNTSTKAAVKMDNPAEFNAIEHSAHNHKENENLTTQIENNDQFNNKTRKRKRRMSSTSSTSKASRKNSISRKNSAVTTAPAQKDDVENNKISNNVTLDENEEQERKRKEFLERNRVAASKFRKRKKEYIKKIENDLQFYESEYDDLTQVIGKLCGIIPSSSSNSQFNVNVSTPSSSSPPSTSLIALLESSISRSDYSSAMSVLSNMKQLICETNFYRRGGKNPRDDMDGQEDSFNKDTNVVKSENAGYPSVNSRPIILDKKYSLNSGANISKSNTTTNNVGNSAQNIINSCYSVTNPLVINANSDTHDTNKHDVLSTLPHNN
- Protocol: PBM E-score (8-mer binding enrichment) (E-score (-0.5 to 0.5)); higher = stronger / more preferred TF binding
- Setup Conditions: protein concentration: 200 nM; construct: GST-full length
In all, about 33,000 sequences were measured (“E-score (-0.5 to 0.5)”: median about -0.032, highest 2% from about 0.36 on). What follows is part of a selection rich in the highest values, with near analogues and random picks from the rest.
Observable: PBM E-score
Answer using only a numeral; do not append any unit.

response.value for `ATGTACGG` (field: PBM E-score) = -0.046

response.value for `GGTCATCA` (field: PBM E-score) = 0.207

response.value for `ACCGTACA` (field: PBM E-score) = 0.0593

response.value for `ACGTACGG` (field: PBM E-score) = 0.38

response.value for `CCGTACGC` (field: PBM E-score) = 0.0653

response.value for `CCGTACGA` (field: PBM E-score) = 0.0901

response.value for `GTCTCCTA` (field: PBM E-score) = 0.0919

response.value for `CACTTTGG` (field: PBM E-score) = -0.0531

response.value for `GGTAATTA` (field: PBM E-score) = 0.239

response.value for `CCGTACGG` (field: PBM E-score) = -0.262

response.value for `AGCTAATG` (field: PBM E-score) = 0.114

response.value for `ACGTAAGG` (field: PBM E-score) = 0.464

response.value for `CCTACAAA` (field: PBM E-score) = -0.0324

response.value for `TAGTATCA` (field: PBM E-score) = 0.187

response.value for `AAGTACGA` (field: PBM E-score) = 0.201

response.value for `AGGACGAC` (field: PBM E-score) = -0.114

response.value for `AAACAATC` (field: PBM E-score) = 0.0366

response.value for `CCGATTCC` (field: PBM E-score) = -0.0807

response.value for `CGTATTAG` (field: PBM E-score) = 0.382

response.value for `CTGACGAA` (field: PBM E-score) = 0.373

response.value for `AAGACGAG` (field: PBM E-score) = -0.189

response.value for `TATCATCA` (field: PBM E-score) = 0.272

response.value for `ACGTACGA` (field: PBM E-score) = 0.414

response.value for `CAGCCCTC` (field: PBM E-score) = -0.334

response.value for `ACGTACGC` (field: PBM E-score) = 0.453

response.value for `CCGACGAA` (field: PBM E-score) = 0.144

response.value for `GGTATTAC` (field: PBM E-score) = 0.204

response.value for `GACGTACC` (field: PBM E-score) = 0.433

response.value for `CGTCATCA` (field: PBM E-score) = 0.489

response.value for `GTGACGGA` (field: PBM E-score) = 0.174

response.value for `ATGACGAC` (field: PBM E-score) = 0.466

response.value for `TGTATTAA` (field: PBM E-score) = 0.182

response.value for `AGTAATTC` (field: PBM E-score) = 0.169

response.value for `CCTGAGGC` (field: PBM E-score) = -0.278

response.value for `GTAGATTA` (field: PBM E-score) = 0.269

response.value for `GGAGCTAC` (field: PBM E-score) = -0.112

response.value for `AGTATTAA` (field: PBM E-score) = 0.261

response.value for `ATGACGGG` (field: PBM E-score) = 0.338

response.value for `GATCAAAA` (field: PBM E-score) = 0.0898

response.value for `ATGACGAG` (field: PBM E-score) = 0.462

response.value for `TACGTACA` (field: PBM E-score) = 0.477

response.value for `GCGTACGA` (field: PBM E-score) = 0.238

response.value for `CCAGCGTC` (field: PBM E-score) = -0.229

response.value for `CAAGGCAA` (field: PBM E-score) = -0.136

response.value for `CGTAATTC` (field: PBM E-score) = 0.435

response.value for `GCGACGAC` (field: PBM E-score) = -0.08
